# TARGET_ENTITY: human orexin-2 receptor (Homo sapiens (Human), UniProt O43614)
# Sequence (O43614 whole entry): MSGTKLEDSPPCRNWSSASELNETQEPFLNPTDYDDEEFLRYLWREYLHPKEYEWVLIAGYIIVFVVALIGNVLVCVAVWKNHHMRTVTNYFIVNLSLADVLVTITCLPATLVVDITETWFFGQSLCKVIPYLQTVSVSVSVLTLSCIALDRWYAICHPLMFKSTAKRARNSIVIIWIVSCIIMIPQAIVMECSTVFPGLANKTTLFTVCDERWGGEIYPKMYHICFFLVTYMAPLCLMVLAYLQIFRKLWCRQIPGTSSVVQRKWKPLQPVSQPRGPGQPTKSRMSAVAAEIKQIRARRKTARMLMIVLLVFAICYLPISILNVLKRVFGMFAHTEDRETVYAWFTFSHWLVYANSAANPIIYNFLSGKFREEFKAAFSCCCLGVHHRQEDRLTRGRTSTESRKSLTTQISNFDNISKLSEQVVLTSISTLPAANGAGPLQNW
# ASSAY_INFO: In vitro intracellular calcium measurements (FLIPR), antagonistic activity on orexin-2 receptor
# Format: cell-based
# RUN_PARAMETERS: CHO cells expressing human orexin-2 receptor; FLIPR; 3 nM orexin-A agonist; 120 min antagonist incubation; geometric mean if determined several times; read-out: IC50 OX2
With a cut-off of 400 nM, any IC50 strictly below it is called Fulfilled; any IC50 meeting it or above is called Not fulfilled.

>>> print(df.to_string())
                                smiles_text                             target_entity    class_label
0  Cc1ccc(-n2nccn2)c(C(=O)N2CCOC[C@H]2Cc2cccc(-c3ccccn3)c2)c1  human orexin-2 receptor (Homo sapiens (Human), UniProt O43614)  Not fulfilled
1  COc1cc(C(=O)N2CCOC[C@H]2Cc2cccc(-n3nccn3)c2)c(-n2nccn2)cc1F  human orexin-2 receptor (Homo sapiens (Human), UniProt O43614)  Not fulfilled
2  O=C(c1cc(Cl)ccc1-n1nccn1)N1CCOC[C@H]1Cc1cc(-n2nccn2)ccc1F  human orexin-2 receptor (Homo sapiens (Human), UniProt O43614)      Fulfilled
3  COc1ccc(C[C@@H]2COCCN2C(=O)c2ccccc2-n2nccn2)cc1-n1cccn1  human orexin-2 receptor (Homo sapiens (Human), UniProt O43614)  Not fulfilled
4  Cc1ccc(-n2nccn2)c(C(=O)N2CCOC[C@H]2Cc2cc(-c3ncccn3)ccc2F)c1  human orexin-2 receptor (Homo sapiens (Human), UniProt O43614)      Fulfilled
5  COc1cc(C(=O)N2CCOC[C@H]2Cc2cc(-n3nccn3)ccc2F)c(-n2nccn2)cc1Cl  human orexin-2 receptor (Homo sapiens (Human), UniProt O43614)      Fulfilled
6  O=C(c1c(F)cccc1-n1nccn1)N1CCOC[C@H]1Cc1cc(-n2nccn2)ccc1F  human orexin-2 receptor (Homo sapiens (Human), UniProt O43614)  Not fulfilled
7  C[C@@H]1CN(C(=O)c2cccc(Cl)c2-n2nccn2)[C@H](Cc2cc(-c3ncccn3)ccc2F)CO1  human orexin-2 receptor (Homo sapiens (Human), UniProt O43614)  Not fulfilled
8  Cc1ccc(-n2nccn2)c(C(=O)N2CCOC[C@H]2Cc2cccc(-n3cccn3)c2)n1  human orexin-2 receptor (Homo sapiens (Human), UniProt O43614)  Not fulfilled
9  COc1ccc(C[C@@H]2COCCN2C(=O)c2cc(C)ccc2-n2nccn2)cc1-c1ncon1  human orexin-2 receptor (Homo sapiens (Human), UniProt O43614)      Fulfilled

## Input Bench note: check whether `Cc1cccc(C(=O)N2C[C@@H](C)OC[C@H]2Cc2cc(-c3ncccn3)ccc2F)c1-n1nccn1` shows IC50 below 400 nM
## Output Not fulfilled

## Input Entry to check: `COc1ccc(C[C@@H]2COCCN2C(=O)c2c(C)cccc2-n2nccn2)cc1-c1ncon1`
## Output Fulfilled
